Origin of measurements: patent US20030091584A1

Study System: F protein of wild type RSV A/Long (respiratory syncytial virus strain …, UniProt P12568 26-574)
Sequence (P12568 26-574): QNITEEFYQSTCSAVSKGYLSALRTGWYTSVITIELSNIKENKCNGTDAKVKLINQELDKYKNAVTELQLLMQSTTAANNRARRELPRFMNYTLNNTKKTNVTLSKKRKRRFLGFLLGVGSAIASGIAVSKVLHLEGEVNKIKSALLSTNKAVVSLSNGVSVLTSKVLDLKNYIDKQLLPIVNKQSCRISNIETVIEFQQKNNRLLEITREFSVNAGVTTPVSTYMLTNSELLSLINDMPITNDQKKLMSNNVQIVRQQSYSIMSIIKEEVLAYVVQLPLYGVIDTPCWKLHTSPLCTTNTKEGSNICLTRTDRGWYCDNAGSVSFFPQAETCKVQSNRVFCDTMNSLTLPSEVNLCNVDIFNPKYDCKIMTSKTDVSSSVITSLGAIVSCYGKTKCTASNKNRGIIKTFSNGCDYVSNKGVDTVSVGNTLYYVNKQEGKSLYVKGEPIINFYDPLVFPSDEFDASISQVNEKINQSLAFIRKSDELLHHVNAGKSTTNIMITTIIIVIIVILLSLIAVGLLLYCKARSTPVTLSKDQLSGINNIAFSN
Assay Explanation: cell-based or functional assay
Each item that follows carries a reported Fold Difference (Curve IC50).
Report the figure along with its unit, number first.

Record request: Fold Difference (Curve IC50) value, item A13c4 (Fab fragment) (Fab, V domains shown, Fab) VH: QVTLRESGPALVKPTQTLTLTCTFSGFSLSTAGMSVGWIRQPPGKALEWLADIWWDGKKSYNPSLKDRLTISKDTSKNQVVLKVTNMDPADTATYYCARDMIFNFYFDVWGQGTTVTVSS VL: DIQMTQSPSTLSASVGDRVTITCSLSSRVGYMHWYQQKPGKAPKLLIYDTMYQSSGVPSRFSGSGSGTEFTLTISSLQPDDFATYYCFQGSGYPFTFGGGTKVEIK
17 fold

Record request: Fold Difference (Curve IC50) value, item A17d4 (monoclonal antibody) (antibody, V domains shown, mAb with framework and constant regions of SYNAGIS) VH: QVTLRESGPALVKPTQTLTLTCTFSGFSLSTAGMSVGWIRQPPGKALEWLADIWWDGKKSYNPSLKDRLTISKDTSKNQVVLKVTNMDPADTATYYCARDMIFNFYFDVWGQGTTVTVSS VL: DIQMTQSPSTLSASVGDRVTITCLPSSRVGYMHWYQQKPGKAPKLLIYDTMYQASGVPSRFSGSGSGTEFTLTISSLQPDDFATYYCFQFSGYPFTFGGGTKLEIK
13 fold

Record request: Fold Difference (Curve IC50) value, item P12f4 (monoclonal antibody) (antibody, V domains shown, mAb with framework and constant regions of SYNAGIS) VH: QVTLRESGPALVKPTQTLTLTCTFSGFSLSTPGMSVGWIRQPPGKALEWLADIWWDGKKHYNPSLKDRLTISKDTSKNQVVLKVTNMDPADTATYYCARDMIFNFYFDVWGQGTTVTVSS VL: DIQMTQSPSTLSASVGDRVTITCSLSSRVGYMHWYQQKPGKAPKLLIYDTRGLPSGVPSRFSGSGSGTEFTLTISSLQPDDFATYYCFQGSGYPFTFGGGTKVEIK
19 fold

Record request: Fold Difference (Curve IC50) value, item P11d4 (monoclonal antibody) (antibody, V domains shown, mAb with framework and constant regions of SYNAGIS) VH: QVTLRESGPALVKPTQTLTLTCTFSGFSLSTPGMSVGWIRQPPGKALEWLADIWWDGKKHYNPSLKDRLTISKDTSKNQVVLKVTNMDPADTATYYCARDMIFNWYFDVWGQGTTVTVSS VL: DIQMTQSPSTLSASVGDRVTITCSPSSRVGYMHWYQQKPGKAPKLLIYDTMRLASGVPSRFSGSGSGTEFTLTISSLQPDDFATYYCFQGSGYPFTFGGGTKVEIK
21 fold
